System: umbrella sedge (Cyperus difformis)
ASSAY_EXPLANATION: Test B flooded paddy test
Assay type: in vivo
EXPERIMENTAL_SETUP: Flood (flooded paddy test), 62 g ai/ha; scale of 0 to 100 where 0 is no effect and 100 is complete control; 13 to 15 days
EXPERIMENTAL_ENDPOINT: Plant response rating, Sedge, Umbrella

Sample answers from the record:
CCCn1c(-c2ccccc2F)ncc(C(=O)C2=C(O)CCCC2=O)c1=O [Compound 101]	20
CCCCn1c(-c2cccc(C)c2)ncc(C(=O)C2=C(O)C3CCC(C3)C2=O)c1=O (stereo not drawn) [Compound 232]	80
Cc1ccc(F)cc1-n1c(-c2cc(F)cc(F)c2)ncc(C(=O)C2=C(O)CCCC2=O)c1=O [Compound 183]	50

Q. I'd like to know its Plant response rating, Sedge, Umbrella. The molecule in question is O=C1CCCC(O)=C1C(=O)c1cnc(-c2cccs2)n(-c2ccccc2)c1=O [Compound 66]
A. 0

Q. Plant response rating, Sedge, Umbrella for COCCCn1c(-c2cccc(F)c2)ncc(C(=O)C2=C(O)CCCC2=O)c1=O [Compound 126] ?
A. 70

Q. Param item = O=C1CCCC(O)=C1C(=O)c1cnc(-c2ccccc2)n(C2CCOCC2)c1=O [Compound 129] ; retrieve measured Plant response rating, Sedge, Umbrella.
A. 0

Q. Using the record for CCCCCCn1c(-c2ccccc2)ncc(C(=O)C2=C(O)CCCC2=O)c1=O [Compound 94] , report its Plant response rating, Sedge, Umbrella.
A. 70

Q. What Plant response rating, Sedge, Umbrella value was documented for this molecule, Cc1ccc(F)c(-n2c(-c3ccccc3)ncc(C(=O)C3=C(O)CCCC3=O)c2=O)c1 [Compound 51] ?
A. 40

Q. # get_value(readout='Plant response rating, Sedge, Umbrella', item= CCn1c(-c2cccc(F)c2)ncc(C(=O)C2=C(O)C3CCC(C3)C2=O)c1=O (stereo not drawn) [Compound 236] )
A. 0
